Value source: PubChem BioAssay (NCI)

Entries and their measured growth follow.
Tested on: OVCAR-3 ovarian
Assay: NCI-60 one-dose screen, 48 h (100 = growth as untreated, 0 = no growth, -100 = all killed)
Run Parameters: 10 µM unless noted
Experimental: Growth inhibition of the OVCAR-3 human tumor cell line is measured as a screen for anti-cancer activity. Cells are grown in 96 well plates and exposed to the test compound for 48 hours. Compounds are tested at a single concentration, which is 10^-5 M for most compounds. The reported endpoint is percent growth (GI% or GIPRCNT), where numbers from 0 - 100% represent growth inhibition, and numbers from -100% - 0 represent cell death. For example, a value of 40 represents 60% growth inhibition. […]
About 83,000 compounds went through this panel and 20% of them were active in at least one assay; those are over-represented in the sample as a whole. Activity calls are given as the source filed them. How the source made its calls: active means growth percent below 10; inactive means the rest.

A selection of reference data follows.
Compound	Endpoint Label	Observed Value
COc1ccc2c(c1)c(CC(=O)[Se]CCC#N)c(C)n2C(=O)c1ccc(Cl)cc1	growth	-30.7% (active)
O=[N+]([O-])c1cc(/C=N/Nc2nc(N/N=C/c3ccc(Cl)c([N+](=O)[O-])c3)nc(N3CCCCC3)n2)ccc1Cl	growth	-7.45% (active)
COc1cc(Cn2cc3c(c2)-c2onc(CN4CCCC4)c2CC3)cc(OC)c1OC	growth	100% (inactive)

Now examine the next entry.
So what does the record say about growth for C=C(C=O)[C@@H]1CC[C@]2(COC(C)=O)CC[C@]3(C)C(CC[C@@H]4[C@@]5(C)CC[C@H](OC(C)=O)C(C)(C)[C@@H]5CC[C@]43C)[C@@H]12 (some centres undefined) ?
-71.6% (active)

* * *

Tested on: UO-31 renal
Assay: NCI-60 one-dose screen, 48 h
Run Parameters: 10 µM unless noted
Description: Growth inhibition of the UO-31 human tumor cell line is measured as a screen for anti-cancer activity. Cells are grown in 96 well plates and exposed to the test compound for 48 hours. Compounds are tested at a single concentration, which is 10^-5 M for most compounds. The reported endpoint is percent growth (GI% or GIPRCNT), where numbers from 0 - 100% represent growth inhibition, and numbers from -100% - 0 represent cell death. For example, a value of 40 represents 60% growth inhibition. […]
About 83,000 compounds went through this panel and 20% of them were active in at least one assay; those are over-represented in the sample as a whole. The source made the active and inactive calls. The calls were made as follows: active = growth percent below 10; inactive = the rest.
Field 'call' accepts 1.0 (active), 0.0 (inactive)

Here are 3 molecules together with their reported answers.
Molecule	Measurement Target	Class Label
COCCNc1ccc2ncc(C#Cc3cncc(C(=O)Nc4ccc(CN5CCN(C)CC5)c(C(F)(F)F)c4)c3)n2n1	UO-31 renal	1.0
CC(Nc1c(C#N)cnc2ccc(-c3cnc(N)nc3)cc12)c1ccccc1 (stereo not drawn)	UO-31 renal	1.0
NC(N)=Nc1ccc(Oc2cccc(Nc3ccc(Br)c(C(F)(F)F)c3)c2)cc1	UO-31 renal	0.0

Which outcome was entered for the molecule `COc1cccc(N2CCN(c3ncnc4c3[nH]c3ccc(F)cc34)C[C@H]2C)c1` in this test?
0.0

Which outcome was entered for the molecule `O=C(Cn1cc[n+](CC(=O)c2ccc(-c3ccccc3)cc2)c1)Nc1cccc2cccnc12` in this test?
0.0

Which outcome was entered for the molecule `C#C[C@]1(O)CC[C@H]2[C@@H]3CC=C4c5sc(-c6ccc7c(c6)OCO7)nc5CC[C@]4(C)[C@H]3CC[C@@]21C` in this test?
0.0

Which outcome was entered for the molecule CCO/C=N/C1=C(C#N)C(c2ccc(F)cc2)c2sc3c(C)cccc3c2O1 (stereo not drawn) in this test?
0.0

Which outcome was entered for the molecule `CCN1CCN(C(=O)[C@]23CCC(C)(C)C[C@H]2C2=CC[C@@H]4[C@@]5(C)Cc6c([nH]c7ccccc67)C(C)(C)[C@@H]5CC[C@@]4(C)[C@]2(C)CC3)CC1` in this test?
0.0

* * *

Tested on: U251 CNS
Assay: NCI-60 one-dose screen, 48 h
Run Parameters: 10 µM unless noted
Compounds without any hit were thinned out: in the full panel of roughly 83,000, 20% have a hit. Active and inactive are the calls of the source. How the source made its calls: active means growth percent below 10; inactive means the rest.
Field 'call' accepts YES (active), NO (inactive)

Here are 2 compounds together with their reported answers.
Smiles Notation	Class Label
O=C(NNc1nc2cc(F)ccc2n2c(CO)ccc12)c1cnccn1	NO
C[C@@H](Nc1c(C#N)cnc2ccc(-c3cnc(Cl)c(NS(C)(=O)=O)c3)cc12)c1ccccc1	NO

Which outcome was entered for the compound `O=S(=O)(NCCCNc1nccc(-c2[nH]c(-c3ccccc3)nc2-c2ccc(Cl)c(O)c2)n1)c1cccc2ccccc12` in this test?
NO

Which outcome was entered for the compound `COc1cccc(/C=C(/C)c2ccc3cccc(OC)c3[o+]2)c1O` in this test?
NO

Which outcome was entered for the compound `O=C(Nc1cccc(C(F)(F)F)c1)c1cc(-c2ccc(F)cc2F)ccc1O` in this test?
NO

Which outcome was entered for the compound `CCOP(=O)(OCC)OC[C@]12CCC(C)(C)C=C1[C@H]1CC[C@@H]3[C@@]4(C)CC[C@H](OP(=O)(OCC)OCC)C(C)(C)[C@@H]4CC[C@@]3(C)[C@]1(C)CC2` in this test?
YES

Which outcome was entered for the compound `COc1ccc(COc2ccc(/C=C3\C(=O)Nc4ccccc43)cc2OC)cc1` in this test?
NO

Which outcome was entered for the compound `O=C1[C@H]2Cc3c([nH]c4ccccc34)[C@@H](c3ccc(Cl)cc3)N2C(=O)CN1C1CCN(Cc2ccccc2)CC1` in this test?
NO

* * *

Test system: NCI-H460 lung
Assay: NCI-60 one-dose screen, 48 h (100 = growth as untreated, 0 = no growth, -100 = all killed)
Run Parameters: 10 µM unless noted
This is part of a sample that, as a whole, favours compounds with a hit. Of some 83,000 tested, about 20% had one in any assay. Calls of active or inactive are those of the source. Rule for the calls: active = growth percent below 10; inactive = the rest.
Endpoint Label: growth

So what does the record say about growth for `O=C(O)c1cn(C2CC2)c2cc(N3CCN(C(=O)CN4C(=O)CSC4=O)CC3)c(F)cc2c1=O` ?
107% (inactive)

So what does the record say about growth for `CCOP(=O)(OCC)OC[C@]12CCC(C)(C)C=C1[C@H]1CC[C@@H]3[C@@]4(C)CC[C@H](OP(=O)(OCC)OCC)C(C)(C)[C@@H]4CC[C@@]3(C)[C@]1(C)CC2` ?
-62.2% (active)

* * *

Tested on: HOP-62 NSCLC
Assay: NCI-60 one-dose screen, 48 h
Run Parameters: 10 µM unless noted
Compounds without any hit were thinned out: in the full panel of roughly 83,000, 20% have a hit. Active and inactive are the calls of the source. The calls were made as follows: active = growth percent below 10; inactive = the rest.
Field 'call' accepts active, inactive

Here are 6 compounds together with their reported answers.
Smiles Notation	Class Label
CS(=O)(=O)Nc1cc(-c2ccc3ncc(C#N)c(NCc4cccc(F)c4)c3c2)cnc1Cl	active
CC/C(=C/c1c(O)cccc1OC)c1ccc2c(OC)cccc2[o+]1	inactive
CCN(CC)c1cn(-c2ccc(S(N)(=O)=O)cc2)nn1	inactive
COc1ccc(/C(N)=N/C(N)=N/c2nc3ccccc3s2)cc1	inactive
C#Cc1nc(/C=C/C(=O)c2nccn2C)cs1	active
CCOc1ccccc1NC1=C(Cl)C(=O)c2nc(C)ccc2C1=O	inactive

Which outcome was entered for the compound `CCOC(=O)c1c(N)c(C#N)cn1-c1cc(OC)c(OC)c(OC)c1` in this test?
inactive

Which outcome was entered for the compound `O=C(CNc1nc(-c2cccc([N+](=O)[O-])c2)cs1)Nc1cccc(Cl)c1` in this test?
inactive

Which outcome was entered for the compound `CN1CCN(Cc2ccc(NC(=O)c3cncc(C#Cc4cnc5ccc(OCC(C)(C)O)nn45)c3)cc2C(F)(F)F)CC1` in this test?
active

Which outcome was entered for the compound `Cc1ccc(C2=NN(C)C(=O)C3(CCCC3)C2)cc1` in this test?
inactive

* * *

Tested on: SNB-75 CNS
Assay: NCI-60 one-dose screen, 48 h (100 = growth as untreated, 0 = no growth, -100 = all killed)
Run Parameters: 10 µM unless noted
The panel holds about 83,000 compounds, 20% with a hit somewhere; the sample as a whole holds those more often.
Entries and their measured growth follow.
Field format: number, assumed %, no unit text.

Molecule	growth (%)
CCc1ccc(SC2c3ccc(N(CC)CC)cc3Oc3nc(N)c(C#N)c(N)c32)cc1 (stereo not given)	12.7
Cc1ccc(NC(=O)c2ccc(CN3CCOCC3)c(C(F)(F)F)c2)cc1Oc1ccc(-c2[nH]nc3ncnc(N)c23)cc1	112

So what does the record say about growth for `COc1ccc(C(=O)c2c(N)c(C#N)cn2-c2ccccc2OC)cc1` ?
29.3

So what does the record say about growth for `O=S(=O)(NCCNc1nccc(-n2cnc3ccccc32)n1)c1ccc(Cl)cc1` ?
79.4

So what does the record say about growth for COc1cc2nc(Cl)nc(Nc3cccc(C4=Nc5c(N)nc(N)nc5NC(c5ccc6c(c5)OCO6)C4)c3)c2cc1OC (stereo not given) ?
82.2

* * *

System: NCI-H460 lung
Assay: NCI-60 one-dose screen, 48 h (100 = growth as untreated, 0 = no growth, -100 = all killed)
Run Parameters: 10 µM unless noted
This is part of a sample that, as a whole, favours compounds with a hit. Of some 83,000 tested, about 20% had one in any assay.
Endpoint Label: growth (%)
Field format: number, assumed %, no unit text.

Compound	Unit Of Measure	growth
Oc1[nH]c2ccccc2c1Nn1c(N=N/C=c2/ccc3c(c2)C=NN=3)n[nH]c1=S	%	110
COc1cc(/C=C2\C(=O)Nc3cc(Cl)ccc32)ccc1OCc1ccc(F)cc1	%	99
NC(N)=Nc1ccc(Oc2cccc(NC(N)=Nc3ccc(Cl)c(C(F)(F)F)c3)c2)cn1	%	19.9
C=C(C=O)[C@@H]1CC[C@]2(C)[C@H](CC=C3[C@H]4[C@@H](C)[C@H](C)CC[C@]4(C(=O)OC)CC[C@]32C)[C@@]1(C)CCC#N	%	1.89
COc1ccc(-c2nn(-c3ccc(S(C)(=O)=O)cc3)cc2/C=N/O)cc1	%	102

So what does the record say about growth for `CC(C)(O)c1cncc(-c2ccc3ncnc(NCc4ccccc4)c3c2)c1` ?
97.6

So what does the record say about growth for CCCn1cnc2c(c1=N)C(c1ccc(OC)cc1)c1sc3c(C)cccc3c1O2 (stereo not drawn) ?
6.21

So what does the record say about growth for `COc1ccc(-c2nc3ccc(-c4nnc(SCC(=O)Nc5ccc(C(=O)/C=C/c6ccc(Cl)cc6)cc5)o4)cc3[nH]2)cc1` ?
104

So what does the record say about growth for `NC(N)=Nc1ccc(Oc2cccc(NC(N)=Nc3ccc(I)cc3F)c2)cc1` ?
65.9

So what does the record say about growth for `O=S(=O)(NCCNc1nccc(-n2cnc3ccccc32)n1)c1ccc(C(F)(F)F)cc1` ?
57.8

So what does the record say about growth for O=C(NNc1nc2cc(F)ccc2n2c(CN3CC4CNCC4C3)ccc12)c1cnccn1 (stereo not drawn) ?
4.93

So what does the record say about growth for `CCOc1ccccc1NC1=C(Cl)C(=O)c2nc(C)ccc2C1=O` ?
12.1

So what does the record say about growth for `C=CCN(C)S(=O)(=O)/N=C1\NC(=O)NC1=C(Cl)Cl` ?
45.6

So what does the record say about growth for `Oc1cccc2ccc(-c3nnc(SCc4ccc(O)c5ncccc45)n3-c3ccccc3)nc12` ?
2.48

So what does the record say about growth for `O=C(NCc1ncc[nH]1)c1ccc(-c2nc3ccc4[nH]ncc4c3c3c2CCCC3)cc1` ?
8.85
